Listing of recorded pIC50 by entry.
- target entity: IDH1 R132H (Homo sapiens, UniProt O75874, R132H)
- Sequence (O75874 whole entry R132H): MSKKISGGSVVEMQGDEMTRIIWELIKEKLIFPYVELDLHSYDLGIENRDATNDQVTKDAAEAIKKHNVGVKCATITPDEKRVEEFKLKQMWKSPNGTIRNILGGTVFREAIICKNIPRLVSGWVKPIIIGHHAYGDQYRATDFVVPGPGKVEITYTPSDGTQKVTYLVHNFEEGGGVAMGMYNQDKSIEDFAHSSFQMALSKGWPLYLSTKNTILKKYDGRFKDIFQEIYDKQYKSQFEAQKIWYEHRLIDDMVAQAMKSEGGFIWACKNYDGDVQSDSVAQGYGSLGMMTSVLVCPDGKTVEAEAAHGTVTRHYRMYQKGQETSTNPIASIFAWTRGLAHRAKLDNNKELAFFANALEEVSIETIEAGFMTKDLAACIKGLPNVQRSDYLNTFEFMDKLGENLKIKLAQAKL
- measurement protocol: Assay for IDH1 R132H inhibitors (NADPH/aKG, resazurin detection)
- Assay type: biochemical
- condition info: Table 3; enzyme assay, 50 minutes at room temperature; read-out: IC50 (IDH1 R132H Inhibition)
pIC50: −log10 of the molar value.

Sample answers from the record:
COCCC(=O)N1CCN(c2nc(C3CC3)c(-c3cccc(C)c3)c(C)c2C#N)C[C@H]1C [Compound 243]; ≥ 6.00
C[C@@H]1CN(c2nc(C3CCCCC3)cc(-c3ccccc3)c2C#N)C[C@H](C)N1C(=O)c1ccoc1 [Compound 142]; 5.30 to 6.00
CC(C)c1cc(-c2ccccc2)c(C#N)c(N2CCN(C(=O)c3c[nH]c4ccccc34)CC2c2ccccc2)n1 (stereo not drawn) [Compound 169]; 5.30 to 6.00
Cc1ccc(-c2cc(C#N)c(N3CCN(C(=O)c4ccoc4)[C@H](C)C3)nc2C(C)C)cc1 [Compound 179]; 5.30 to 6.00
CC(C)c1nc(N2CCN(C(=O)c3ccco3)CC2)c(C#N)cc1-c1ccccc1 [Compound 109]; 4.82 to 5.30

Quick check: pIC50 of Cc1occc1C(=O)N1CCN(c2nc(C(C)C)c(-c3ccc(C(C)C)cc3)cc2C#N)C[C@H]1C [Compound 202] ?
5.30 to 6.00

// lookup pIC50 for Cc1ccc(-c2cc(C#N)c(N3CCN(C(=O)c4ccco4)[C@H](C)C3)nc2C(C)C)cc1 [Compound 180]
5.30 to 6.00

Which pIC50 is listed for COCCC(=O)N1CCN(c2nc(C3CC3)c(-c3ccc(C)c(F)c3)cc2C#N)C[C@H]1C [Compound 235] ?
≥ 6.00

Reported pIC50, compound COCCC(=O)N1CCN(c2nc(C3CC3)c(-c3ccccc3F)cc2C#N)C[C@H]1C [Compound 249] : ____
≥ 6.00

Would you mind telling me what pIC50 value was observed for COc1ccccc1-c1cc(C(C)C)nc(N2CCN(C(=O)c3c[nH]c4ccccc34)CC2)c1C#N [Compound 106] ?
4.82 to 5.30

Param item = COCCC(=O)N1CCN(c2nc(C(C)C)c(-c3ccc(C(F)(F)F)cc3)cc2C#N)C[C@H]1C(C)C [Compound 197] ; retrieve measured pIC50.
5.30 to 6.00

Look at this compound and give its reported pIC50. Cc1occc1C(=O)N1CCN(c2nc(C(C)C)c(-c3ccc(C(F)(F)F)cc3)cc2C#N)C[C@H]1C [Compound 201]
5.30 to 6.00

Please give the measured pIC50 for this compound: COCCC(=O)N1CCN(c2nc(C(C)C)c(-c3cccc(Cl)c3)cc2C#N)C[C@H]1C [Compound 218]
5.30 to 6.00

Quick one: pIC50 of Cc1ccc(-c2cc(C#N)c(N3CCN(C(=O)c4ccoc4C)[C@H](C)C3)nc2C(C)C)cc1 [Compound 182] ?
≥ 6.00

Look up pIC50: CC[C@@H]1CN(c2nc(C(C)C)c(-c3ccccc3)cc2C#N)CCN1C(=O)c1ccoc1 [Compound 171]
5.30 to 6.00

###

- target entity: IDH1 R132H (Homo sapiens, UniProt O75874, R132H)
- measurement protocol: Assay for IDH1 R132H inhibitors (NADPH/aKG, resazurin detection)
- Assay type: biochemical
- condition info: Table 3; enzyme assay, 50 minutes at room temperature; read-out: IC50 (IDH1 R132H Inhibition)
property name: IC50

CC(C)c1cc(-c2ccccc2)c(C#N)c(N2CCN(C(=O)Cc3ccccc3)[C@H](C)C2)n1 [Compound 131]; 1 to 5 µM
Cc1ccccc1-c1cc(C(C)C)nc(N2CCN(C(=O)c3ccoc3)[C@H](C)C2)c1C#N [Compound 158]; 1 to 5 µM
N#Cc1cc(-c2ccccc2)c(-c2ccccc2)nc1N1CCN(C(=O)c2ccoc2)CC1 [Compound 122]; 5 to 15 µM
CC1CN(c2nc(-c3ccccc3)c(-c3ccccc3)cc2C#N)CCN1C(=O)c1ccco1 (centres unmarked) [Compound 117]; 5 to 15 µM
COc1ccccc1-c1cc(C#N)c(N2CCN(C(=O)Cc3cccs3)[C@H](C)C2)nc1C(C)C [Compound 177]; 1 to 5 µM

For the compound shown here, COCCC(=O)N1CCN(c2nc(C3CC3)c(Cc3ccccc3)c(C)c2C#N)C[C@H]1C [Compound 245] , give the reported IC50.
1 to 5 µM

Sample CC(C)c1ccc(-c2cc(C#N)c(N3CCN(C(=O)c4ccoc4)[C@H](C)C3)nc2C(C)C)cc1 [Compound 206] — what was its IC50?
1 to 5 µM

Fill blank: measured IC50 of the compound COCCC(=O)N1CCN(c2nc(C3CC3)c(-c3cccc(OC)c3)cc2C#N)C[C@H]1C [Compound 236] is ____.
≤ 1 µM

###

- target entity: IDH1 R132H (Homo sapiens, UniProt O75874, R132H)
- measurement protocol: Assay for IDH1 R132H inhibitors (NADPH/aKG, resazurin detection)
- Assay type: biochemical
- condition info: enzyme assay of Example 12; read-out: IDH1R132H IC50
pIC50: −log10 of the molar value.
property name: pIC50

Some solved entries appear below for comparison.
C=Cc1ccnc(Nc2cc(C#N)c(N3CCN(C(=O)CCOC)[C@H](C(C)C)C3)nc2C2CC2)c1 [Compound 758]; > 6.30
COCCC(=O)N1CCN(c2nc(C3CC3)c(-c3ccc(OCC4CC4)cc3)c(C)c2C#N)C[C@H]1C [Compound 336]; 6.00 to 6.30
C=Cc1cc(-c2cc(C#N)c(N3CCN(C(=O)C[C@@H](C)O)[C@H](C4CC4)C3)nc2C2CC2)ccn1 [Compound 585]; > 6.30

Item: C=Cc1cc(-c2c(C3CC3)nc(N3CCN(C(=O)CN4CCC4=O)[C@H](C4CC4)C3)c(C#N)c2C)ccn1 [Compound 811] Test system: IDH1 R132H (Homo sapiens, UniProt O75874, R132H) Read-out: pIC50 Value: ?
> 6.30

###

- target entity: IDH1 R132H (Homo sapiens, UniProt O75874, R132H)
- measurement protocol: Assay for IDH1 R132H inhibitors (NADPH/aKG, resazurin detection)
- Type: biochemical
- condition info: enzyme assay of Example 12; read-out: IDH1R132H IC50
pIC50: −log10 of the molar value.
Recorded measurements of pIC50, one per entry

Here are 10 compounds together with their reported answers.
COCCC(=O)N1CCN(c2nc(C3CC3)c(-c3ccc(OC(F)(F)F)cc3)c(C)c2C#N)C[C@H]1C [Compound 263]; > 6.30
C=Cc1cc(-c2cc(C#N)c(N3CCN(C(=O)CCOC)[C@H](C)C3)nc2C2CC2)ccn1 [Compound 390]; > 6.30
C=Cc1cnc2c(-c3cc(C#N)c(N4CCN(C(=O)CCOC)[C@H](C)C4)nc3C3CC3)cccc2n1 [Compound 579]; > 6.30
C[C@@H]1CN(c2nc(C3CC3)c(-c3ccc(F)cc3)cc2C#N)CCN1C(=O)C1CC1 [Compound 550]; 6.00 to 6.30
N#Cc1cc(-c2cccc3c(C#N)nccc23)c(C2CC2)nc1N1CCN(C(=O)C2CC2)[C@H](C2CC2)C1 [Compound 511]; > 6.30
C=CC(=O)N1CCC=C(c2c(C3CC3)nc(N3CCN(C(=O)CCO)[C@H](C(C)C)C3)c(C#N)c2C)C1 [Compound 762]; > 6.30
COCC(=O)N1CCN(c2nc(C3CC3)c(Nc3ccnc(Cl)c3)cc2C#N)C[C@H]1C1CC1 [Compound 718]; > 6.30
C=Cc1cc(-c2cc(C#N)c(N3CCN(C(=O)CCOC)[C@H](C)C3)nc2C2CC2)c2ccncc2n1 [Compound 580]; > 6.30
C=Cc1cc(-c2cc(C#N)c(N3CCN(C(=O)C[C@H]4CCO4)[C@H](C4CC4)C3)nc2C2CC2)ccn1 [Compound 752]; > 6.30
C=Cc1ccc2ccc(Nc3cc(C#N)c(N4CCN(C(=O)CCOC)[C@H](C)C4)nc3C3CC3)cc2n1 [Compound 732]; > 6.30

Sample C=Cc1ccc2ccc(-c3cc(C#N)c(N4CCN(C(=O)C5CC5)[C@H](C5CC5)C4)nc3C3CC3)cc2n1 [Compound 709] — what was its pIC50?
> 6.30

Give the measured pIC50 of COCCC(=O)N1CCN(c2nc(C3CC3)c(-c3ccsc3)c(C)c2C#N)C[C@H]1C [Compound 270] .
6.00 to 6.30

Fill blank: measured pIC50 of the compound C=CC(=O)Nc1ccc(C(C)Oc2cc(C#N)c(N3CCN(C(=O)CCOC)[C@H](C)C3)nc2C2CC2)cc1 (some centres unmarked) [Compound 389] is ____.
> 6.30

Need pIC50 of C=Cc1cc(-c2cc(C#N)c(N3CCN(C(=O)c4ccoc4)[C@H](C4CC4)C3)nc2C2CC2)ccn1 [Compound 546] , thanks.
> 6.30

If you can, please state the reported pIC50 value of N#Cc1cc(-c2cccc3c2NC(=O)C3=O)c(C2CC2)nc1N1CCN(C(=O)C2CC2)[C@H](C2CC2)C1 [Compound 513] .
6.00 to 6.30
